- Protocol description: Calcein dye leakage from liposome mimicking red blood cell membrane
- Condition info: PC/CH (1:1, w/w) liposome mimicking a red blood cell membrane in a mammal; FIG. 3
Property: dye leakage

compound="CC(C)C[C@H](NC(=O)[C@H](Cc1ccc(O)cc1)NC(=O)[C@H](CCCNC(=N)N)NC(=O)[C@H](CCCNC(=N)N)NC(=O)[C@H](CC(C)C)NC(=O)[C@H](CCCCN)NC(=O)[C@@H](NC(=O)[C@H](CCCNC(=N)N)NC(=O)[C@H](CC(C)C)NC(=O)[C@@H](N)CCCNC(=N)N)C(C)C)C(=O)N[C@@H](CCCNC(=N)N)C(N)=O [FP12-NH2]" test_value="almost no dye leakage"
compound="CC(C)C[C@H](NC(=O)[C@H](Cc1ccc(O)cc1)NC(=O)[C@H](CCCNC(=N)N)NC(=O)[C@H](CCCNC(=N)N)NC(=O)[C@H](CC(C)C)NC(=O)[C@H](CCCCN)NC(=O)[C@@H](NC(=O)[C@H](CCCNC(=N)N)NC(=O)[C@H](CC(C)C)NC(=O)[C@@H](N)CCCCN)C(C)C)C(=O)N[C@@H](CCCNC(=N)N)C(N)=O [FP13-NH2]" test_value="almost no dye leakage"
compound="CC(C)C[C@@H](NC(=O)[C@H](N)CCCCN)C(=O)N[C@H](CCCNC(=N)N)C(=O)N[C@@H](C(=O)N[C@H](CCCCN)C(=O)N[C@H](CC(C)C)C(=O)N[C@H](CCCNC(=N)N)C(=O)N[C@H](CCCNC(=N)N)C(=O)N[C@H](Cc1ccc(O)cc1)C(=O)N[C@H](CC(C)C)C(=O)N[C@H](CCCNC(=N)N)C(N)=O)C(C)C [allD FP13-NH2]" test_value="almost no dye leakage"
